EXPERIMENTAL_SYSTEM: T1, Human soluble IL-6R (human, UniProt P08887 20-358)
T1 construct: Soluble recombinant form; biotinylated in some assays; also called hIL-6R; human IL-6R
T1 sequence (looked up): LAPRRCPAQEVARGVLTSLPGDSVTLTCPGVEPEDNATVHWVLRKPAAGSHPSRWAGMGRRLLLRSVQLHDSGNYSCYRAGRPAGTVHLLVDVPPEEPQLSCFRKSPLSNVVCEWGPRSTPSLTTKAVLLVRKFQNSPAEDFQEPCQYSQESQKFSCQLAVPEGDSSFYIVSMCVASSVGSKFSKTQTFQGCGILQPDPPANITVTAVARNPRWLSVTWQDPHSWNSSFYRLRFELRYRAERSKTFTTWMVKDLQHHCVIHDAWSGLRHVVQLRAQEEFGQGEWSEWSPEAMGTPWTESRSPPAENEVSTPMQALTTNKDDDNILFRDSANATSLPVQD
MEASUREMENT_PROTOCOL: Alphascreen, inhibition of bio-IL-6 binding to IL-6R
Catalogue of IC50 values
Express it in pM; write the number only.

See these solved cases before continuing.
BINDER: IL6R05 (VHH, also called PMP32E10; not shown: C-terminal c-myc and (His)6 tags) VHH: EVQLVESGGGLVQPGGSLRLSCAASGFTFGSYDMSWVRQAPGKGPEWVSAINSGGGSTYYADSVKGRFTISRDNAKNTLYLQMNSLKPEDTAVYYCATDWRYSDYDLPLPPPGDYWGQGTQVTVSS
IC50 [pM]: 626

BINDER: IL6R13 (VHH, also called PMP35H4; not shown: C-terminal c-myc and (His)6 tags) VHH: EVQLVESGGGLVQPGGSLRLSCAASGFTFDDYGMSWVRQAPGRATEWVSAISWNGNNTYYTESMKGRFTISRDNAKNTVYLQMNSLKPEDTAVYYCVKGSTAIVGVPPTYPDEYDYWGQGTQVTVSS
IC50 [pM]: 47.7

BINDER: IL6R09 (VHH, also called PMP34G9; not shown: C-terminal c-myc and (His)6 tags) VHH: EVQLVESGGGLVQAGGSLRLSCAASGRTSSSYDMTWYRQVPGKEREFVAVISWSGGSTYYADSVKGRFTISRDNAKNTVYLQMNSLKPEDTAIYYCNAYTGGGDDYWGQGTQVTVSS
IC50 [pM]: 238

Could you now look at the following binder, please?
Q. Would you kindly share the measured IC50 for IL6R04 (VHH, also called PMP32C9; not shown: C-terminal c-myc and (His)6 tags) VHH: EVQLVESGGGLVQAGGSLRLSCAASGFTFDDYDIGWFRQAPGKEREGVSGISSSDGNTYYADSVKGRFTISSDNAKNTVYLQMNSLKPEDTAVYYCAAEPPDSSWYLDGSPEFFKYWGQGTQVTVSS ?
A. 93
